- System: HeLa Kyoto;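 note: HeLa Kyoto cells synchronized by double thymidine or nocodazole block, proteins quantified by TMT10plex mass spectrometry, three independent biological replicates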
- assay: melting temperature (median over replicates), in situ; higher = more thermally stable
- measurement conditions: cell cycle stage: G1/S
Property: melting temperature; scope: individual substances
Report only the number, with the unit °C understood.

Field: example entries. Status: answers known.
substance	unit info	melting temperature
MLGWIKRLIRMVFQQVGVSMQSVLWSRKPYGSSRSIVRKIGTNLSLIQCPRVQFQINSHATEWSPSHPGEDAVASFADVGWVAKEEGECSARLRTEVRSRPPLQDDLLFFEKAPSRQISLPDLSQEEPQLKTPALANEEALQKICALENELAALRAQIAKIVTQQEQQNLTAGDLDSTTFGTIPPHPPPPPPPLPPPALGLHQSTSAVDLIKERREKRANAGKTLVKNNPKKPEMPNMLEILKEMNSVKLRSVKRSEQDVKPKPVDATDPAALIAEALKKKFAYRYRSDSQDEVEKGIPKSESEATSERVLFGPHMLKPTGKMKALIENVSDS [MTFR1]	°C	49.3
MPHIDNDVKLDFKDVLLRPKRSTLKSRSEVDLTRSFSFRNSKQTYSGVPIIAANMDTVGTFEMAKVLCKFSLFTAVHKHYSLVQWQEFAGQNPDCLEHLAASSGTGSSDFEQLEQILEAIPQVKYICLDVANGYSEHFVEFVKDVRKRFPQHTIMAGNVVTGEMVEELILSGADIIKVGIGPGSVCTTRKKTGVGYPQLSAVMECADAAHGLKGHIISDGGCSCPGDVAKAFGAGADFVMLGGMLAGHSESGGELIERDGKKYKLFYGMSSEMAMKKYAGGVAEYRASEGKTVEVPFKGDVEHTIRDILGGIRSTCTYVGAAKLKELSRRTTFIRVTQQVNPIFSEAC [GMPR2]	°C	56.3
RALGAPB	°C	50.2

Problem: GET /values?readout=melting temperature&item= MICLVLTIFANLFPAACTGAHERTFLAVKPDGVQRRLVGEIVRRFERKGFKLVALKLVQASEELLREHYAELRERPFYGRLVKYMASGPVVAMVWQGLDVVRTSRALIGATNPADAPPGTIRGDFCIEVGKNLIHGSDSVESARREIALWFRADELLCWEDSAGHWLYE [NME3]
Solution: 55.7

Problem: GET /values?readout=melting temperature&item= MPFDFRRFDIYRKVPKDLTQPTYTGAIISICCCLFILFLFLSELTGFITTEVVNELYVDDPDKDSGGKIDVSLNISLPNLHCELVGLDIQDEMGRHEVGHIDNSMKIPLNNGAGCRFEGQFSINKVPGNFHVSTHSATAQPQNPDMTHVIHKLSFGDTLQVQNIHGAFNALGGADRLTSNPLASHDYILKIVPTVYEDKSGKQRYSYQYTVANKEYVAYSHTGRIIPAIWFRYDLSPITVKYTERRQPLYRFITTICAIIGGTFTVAGILDSCIFTASEAWKKIQLGKMH [ERGIC1]
Solution: 55.2

Problem: GET /values?readout=melting temperature&item= MAVSESQLKKMVSKYKYRDLTVRETVNVITLYKDLKPVLDSYVFNDGSSRELMNLTGTIPVPYRGNTYNIPICLWLLDTYPYNPPICFVKPTSSMTIKTGKHVDANGKIYLPYLHEWKHPQSDLLGLIQVMIVVFGDEPPVFSRPISASYPPYQATGPPNTSYMPGMPGGISPYPSGYPPNPSGYPGCPYPPGGPYPATTSSQYPSQPPVTTVGPSRDGTISEDTIRASLISAVSDKLRWRMKEEMDRAQAELNALKRTEEDLKKGHQKLEEMVTRLDQEVAEVDKNIELLKKKDEELSSALEKMENQSENNDIDEVIIPTAPLYKQILNLYAEENAIEDTIFYLGEALRRGVIDLDVFLKHVRLLSRKQFQLRALMQKARKTAGLSDLY [TSG101]
Solution: 50.7

Problem: GET /values?readout=melting temperature&item= MKSVIYHALSQKEANDSDVQPSGAQRAEAFVRAFLKRSTPRMSPQAREDQLQRKAVVLEYFTRHKRKEKKKKAKGLSARQRRELRLFDIKPEQQRYSLFLPLHELWKQYIRDLCSGLKPDTQPQMIQAKLLKADLHGAIISVTKSKCPSYVGITGILLQETKHIFKIITKEDRLKVIPKLNCVFTVETDGFISYIYGSKFQLRSSERSAKKFKAKGTIDL [POP4]
Solution: 52.4

Problem: GET /values?readout=melting temperature&item= MASGVQVADEVCRIFYDMKVRKCSTPEEIKKRKKAVIFCLSADKKCIIVEEGKEILVGDVGVTITDPFKHFVGMLPEKDCRYALYDASFETKESRKEELMFFLWAPELAPLKSKMIYASSKDAIKKKFQGIKHECQANGPEDLNRACIAEKLGGSLIVAFEGCPV [DSTN]
Solution: 54.1
